target: human orexin-1 receptor (Homo sapiens (Human), UniProt O43613); test: In vitro assay: intracellular calcium measurements (FLIPR), antagonistic activity; conditions: CHO cells expressing human orexin-1 receptor, orexin-A agonist, geometric mean, read-out: IC50 Ox1
Sequence (O43613 whole entry): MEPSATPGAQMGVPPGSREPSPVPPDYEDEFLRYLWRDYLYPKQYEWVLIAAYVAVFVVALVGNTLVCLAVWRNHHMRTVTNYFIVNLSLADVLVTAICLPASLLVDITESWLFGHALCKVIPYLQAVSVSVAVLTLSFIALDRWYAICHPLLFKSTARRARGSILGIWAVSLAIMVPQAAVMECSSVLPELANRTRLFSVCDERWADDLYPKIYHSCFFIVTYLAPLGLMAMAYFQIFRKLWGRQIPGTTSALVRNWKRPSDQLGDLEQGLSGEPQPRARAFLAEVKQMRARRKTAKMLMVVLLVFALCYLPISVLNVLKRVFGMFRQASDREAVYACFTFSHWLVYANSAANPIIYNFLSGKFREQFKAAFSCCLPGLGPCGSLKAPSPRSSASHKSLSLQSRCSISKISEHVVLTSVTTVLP
Lab note - cut at 30 nM for IC50: T if strictly below, F if not.

>>> category_label("Cc1ccc(-n2nccn2)c(C(=O)N2CCC[C@@]2(C)c2nc3c(C)c(Cl)ccc3[nH]2)n1 [Ex. 5.47]")
"T"
>>> category_label("COc1ccc(-n2nccn2)c(C(=O)N2CC[C@H](C)[C@H]2c2nc3cc(OC)c(OC)cc3[nH]2)c1 [Ex. 4.43]")
"F"
>>> category_label("Cc1ccc(-c2ccccn2)c(C(=O)N2CC[C@H](C)[C@H]2c2nc3cc(Cl)c(C)cc3[nH]2)c1 [Ex. 4.102]")
"T"

Given the entry CO[C@@H]1C[C@@H](c2nc3ccc(Cl)c(C)c3[nH]2)N(C(=O)c2cc(C)c(C)cc2-n2nccn2)C1 [Ex. 3.16] , would its reported IC50 be below 30 nM? T

Now the compound Cc1nc(C(=O)N2CCC[C@@]2(C)c2nc3c(F)c(F)ccc3[nH]2)c(-c2cccc(F)c2)s1 [Ex. 5.212] T

What do you get for Cc1ccc(-n2nccn2)c(C(=O)N2CCC[C@@]2(C)c2nc3c(Cl)cccc3[nH]2)c1 [Ex. 5.26] ? F

Thanks! And Cc1cc(C)c2nc(C3CCCN3C(=O)c3nc(C)sc3-c3cccc(Cl)c3)[nH]c2c1 (racemic) [Ex. 1.102] ? T

====

biological target: UniProt:O43614; experiment: In vitro assay: intracellular calcium measurements (FLIPR), antagonistic activity; conditions: CHO cells expressing human orexin-2 receptor, orexin-A agonist, geometric mean, read-out: IC50 Ox2
Reported pIC50 is given for each of the following molecules.
Scale: negative log10 of molar concentration, which is what pIC50 denotes.

Record excerpt, results attached:
>>> value_measured("C[C@@]1(c2nc3cc(C(F)(F)F)ccc3[nH]2)CCCN1C(=O)c1cc(Cl)ccc1-n1nccn1")
7.23
>>> value_measured("COc1cc2nc([C@@H]3[C@@H](C)CCN3C(=O)c3cc(C)ccc3-n3cccn3)[nH]c2cc1OC")
6.60
>>> value_measured("Cc1nc(C(=O)N2CC[C@H](C)[C@H]2c2nc3cc(C(F)(F)F)ccc3[nH]2)c(-c2ccccc2Cl)s1")
5.68
>>> value_measured("Cc1nc(C(=O)N2CCCC2c2nc3cc(Br)ccc3[nH]2)c(-c2ccccc2)s1 (stereo not shown)")
6.25
>>> value_measured("COCCn1c([C@]2(C)CCCN2C(=O)c2cc(C)ccc2-c2cccc(OC)c2)nc2cc(C)c(C)cc21")
6.72
>>> value_measured("COc1ccc2[nH]c([C@@H]3CCCN3C(=O)c3nc(C)sc3-c3cccc(Cl)c3)nc2c1")
7.16

Okay, next one:
pIC50 lookup needed for `Cc1ccc(-c2ncccn2)c(C(=O)N2CC[C@H](C)[C@H]2c2nc3ccc(Cl)c(C)c3[nH]2)c1` , thanks. 6.64

====

target: human orexin-1 receptor (Homo sapiens (Human)); assay: In vitro assay: intracellular calcium measurements (FLIPR), antagonistic activity; details: CHO cells expressing human orexin-1 receptor, orexin-A agonist, geometric mean, read-out: IC50 Ox1
Let's look at some molecules and their measured pIC50.
The read-out pIC50 is expressed as -log10 of concentration in moles per litre.

Consider the reported pIC50 for these molecules:
>>> value_measured("Cc1nc(C(=O)N2CCCC2c2nc3c4c(ccc3[nH]2)OCCO4)c(-c2ccccc2)s1 (stereo not shown)")
6.72
>>> value_measured("Cc1c(Cl)ccc2[nH]c([C@]3(C)CCCN3C(=O)c3nc(-c4cccc(Cl)c4)sc3-c3ccc(F)cc3)nc12")
7.89
>>> value_measured("Cc1nc(C(=O)N2CCC[C@@]2(C)c2nc3c(C)c(Cl)ccc3n2C)c(-c2ccccc2)s1")
8.70
>>> value_measured("Cc1ccc(C(=O)N2CCC[C@@]2(C)c2nc3cc(OC(F)(F)F)ccc3[nH]2)c(-c2cccnc2)c1")
7.27
>>> value_measured("Cc1ccc(-n2cccn2)c(C(=O)N2CCC[C@@]2(C)c2nc3c(F)c(F)ccc3[nH]2)c1")
6.58

// returns reported pIC50 for input `Cc1ccc(-c2ccccc2F)c(C(=O)N2CCC[C@@]2(C)c2nc3cc(C(F)(F)F)c(Cl)cc3[nH]2)c1` 7.70

Same for `Cc1ccc(-c2sc(C)nc2C(=O)N2CC[C@H](C)[C@H]2c2nc3cc(C(F)(F)F)ccc3[nH]2)cc1` 8.15

====

Listed below: IC50 values for each entry.
Biological target: human orexin-2 receptor (Homo sapiens (Human), UniProt O43614)
Sequence (O43614 whole entry): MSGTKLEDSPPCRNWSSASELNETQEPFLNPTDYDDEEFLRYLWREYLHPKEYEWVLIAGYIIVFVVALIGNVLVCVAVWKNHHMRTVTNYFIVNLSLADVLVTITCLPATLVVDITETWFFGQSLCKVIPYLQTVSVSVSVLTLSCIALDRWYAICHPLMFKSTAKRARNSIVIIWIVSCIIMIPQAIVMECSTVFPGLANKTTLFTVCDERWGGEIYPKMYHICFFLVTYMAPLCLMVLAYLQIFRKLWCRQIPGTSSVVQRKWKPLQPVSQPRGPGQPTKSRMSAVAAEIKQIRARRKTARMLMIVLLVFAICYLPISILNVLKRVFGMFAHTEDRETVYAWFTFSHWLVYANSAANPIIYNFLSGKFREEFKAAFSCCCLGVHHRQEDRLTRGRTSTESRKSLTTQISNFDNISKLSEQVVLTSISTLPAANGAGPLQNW
Assay: In vitro assay: intracellular calcium measurements (FLIPR), antagonistic activity
Conditions: CHO cells expressing human orexin-2 receptor, orexin-A agonist, geometric mean, read-out: IC50 Ox2
Description: In Vitro Assay: Intracellular Calcium Measurements: […] Within the Fluorescent Imaging Plate Reader (FLIPR Tetra, Molecular Devices), antagonists are added to the plate in a volume of 10 μl/well, incubated for 120 min and finally 10 μl/well of agonist is added. […] The calculated IC50 values may fluctuate depending on the daily cellular assay performance. […]

>>> value_measured("Cc1ccc(-c2ccccn2)c(C(=O)N2CC[C@H](C)[C@H]2c2nc3c(C)c(Cl)ccc3[nH]2)c1 [Ex. 4.161]")
"191 nM"
>>> value_measured("Cc1nc(C(=O)N2CCCC2c2nc3c(C)cccc3[nH]2)c(-c2cccc(Cl)c2)s1 (stereo not shown) [Ex. 1.96]")
"43 nM"

# get_value(readout='IC50', item= Cc1ccc(-c2cccc(C)c2C)c(C(=O)N2CCC[C@@]2(C)c2nc3cc(C(F)(F)F)c(Cl)cc3[nH]2)c1 [Ex. 5.161] ) 388 nM

Would you kindly repeat that for Cc1nc(C(=O)N2CC(F)(F)C[C@H]2c2nc3c(C)c(Cl)ccc3[nH]2)c(-c2ccccc2)s1 [Ex. 2.8] ? 51 nM

====

molecular target: human orexin-1 receptor (Homo sapiens (Human)); assay: In vitro assay: intracellular calcium measurements (FLIPR), antagonistic activity; conditions: CHO cells expressing human orexin-1 receptor, orexin-A agonist, geometric mean, read-out: IC50 Ox1
In this section, each of the compounds is paired with its reported IC50.
Give just the numeric value; nM need not be written.

>>> value_measured("C=C1C[C@@H](c2nc3ccc(OC)cc3[nH]2)N(C(=O)c2c(-n3nccn3)ccc(C)c2F)C1")
883
>>> value_measured("Cc1cccc(-c2ccc(C)cc2C(=O)N2CCC[C@@]2(C)c2nc3cc(C)c(C)cc3n2C)c1")
15
>>> value_measured("COc1ccc2nc([C@@H]3CCCN3C(=O)c3nc(C)sc3-c3cccc(F)c3)[nH]c2c1")
1180
>>> value_measured("COc1ccc2[nH]c([C@@H]3CCCN3C(=O)c3cc(C)ccc3-n3cccn3)nc2c1")
2210

Any idea what IC50 was measured for C=C1CC(c2nc3c(C)c(Cl)ccc3[nH]2)N(C(=O)c2nc(C3CC3)sc2-c2cccc(C)c2)C1 (centres unmarked) ? 2

Quick one: `C=C1C[C@@H](c2nc3cc(Cl)c(C)cc3[nH]2)N(C(=O)c2nc(C)sc2-c2ccc(C)c(C)c2)C1` 5

// next record C=C1CN(C(=O)c2nc(C)sc2-c2cccc(C)c2)C(C)(c2nc3cc(OC)ccc3[nH]2)C1 (centres unmarked) 13

Now consider Cc1nc(C(=O)N2CCCC2c2nc3cc(Cl)c(Cl)cc3[nH]2)c(-c2cccc(Cl)c2)s1 (centres unmarked) and answer again. 23

====

biological target: UniProt:O43614; test: In vitro assay: intracellular calcium measurements (FLIPR), antagonistic activity; conditions: CHO cells expressing human orexin-2 receptor, orexin-A agonist, geometric mean, read-out: IC50 Ox2
property measured: pIC50
Formally, pIC50 is defined as -log10 of the concentration c, with c in mol/L.

>>> value_measured("CSc1cccc2nc([C@@H]3CCCN3C(=O)c3nc(C)sc3-c3ccc(C)cc3)[nH]c12")
7.33
>>> value_measured("Cc1ccc(-n2nccn2)c(C(=O)N2CCC[C@@]2(C)c2nc3cc(Br)ccc3[nH]2)c1")
6.89

Item under review: `Cc1ccc(-c2ncccn2)c(C(=O)N2CC[C@H](C)[C@H]2c2nc3c(C)c(Cl)ccc3[nH]2)c1` . Reported pIC50? 6.46

For `CSc1ccc2nc([C@@H]3CCCN3C(=O)c3cc(Cl)ccc3-n3nccn3)[nH]c2c1` then? 8.05

// query: `C=C1C[C@@H](c2nc3cccc(C)c3[nH]2)N(C(=O)c2nc(C)sc2-c2cccc(C)c2)C1` 9.05

`COc1cccc2nc([C@@H]3CCCN3C(=O)c3cc(C)ccc3-n3nccn3)[nH]c12` ? 7.52

`C=C1C[C@@H](c2nc3cc(OC)ccc3[nH]2)N(C(=O)c2nc(C)sc2-c2cc(F)cc(F)c2)C1` , same question. 7.35

How about this compound: `CSc1cccc2nc([C@@H]3CCCN3C(=O)c3nc(C4CC4)sc3-c3ccc(C)cc3)[nH]c12` 8.10

Check `C=C1C[C@@H](c2nc3cc(OC)ccc3[nH]2)N(C(=O)c2nc(C3CC3)sc2-c2cccc(C)c2)C1` too. 7.62

Queued: `C=C1C[C@@H](c2nc3cc(OC)ccc3[nH]2)N(C(=O)c2nc(N(C)C)sc2-c2ccc(C)c(C)c2)C1` 8.05

For `C=C1C[C@@H](c2nc3cc(C)c(C)cc3n2C)N(C(=O)c2cc(C)ccc2-n2nccn2)C1` then? 7.16

Continue with `Cc1ccc(-n2cccn2)c(C(=O)N2CCC[C@@]2(C)c2nc3cc(F)c(Br)cc3[nH]2)c1` 6.66

Would you kindly repeat that for `Cc1ccc(-c2sc(C)nc2C(=O)N2CC[C@H](C)[C@H]2c2nc3c(C(F)(F)F)cccc3[nH]2)cc1` ? 7.10

And for `Cc1nc(C(=O)N2CCC[C@@]2(C)c2nc3cc(OC(F)(F)F)ccc3[nH]2)c(-c2ccccc2C)s1` ? 5.95

Thanks! And C=C1CC(c2nc3cc(SC)ccc3[nH]2)N(C(=O)c2cc(C)sc2-c2ccc(C)c(C)c2)C1 (stereo not drawn) ? 8.40
